Target: LAP (M17 leucine aminopeptidase) (Sus scrofa)
Sequence (P28839 33-519 limits assumed): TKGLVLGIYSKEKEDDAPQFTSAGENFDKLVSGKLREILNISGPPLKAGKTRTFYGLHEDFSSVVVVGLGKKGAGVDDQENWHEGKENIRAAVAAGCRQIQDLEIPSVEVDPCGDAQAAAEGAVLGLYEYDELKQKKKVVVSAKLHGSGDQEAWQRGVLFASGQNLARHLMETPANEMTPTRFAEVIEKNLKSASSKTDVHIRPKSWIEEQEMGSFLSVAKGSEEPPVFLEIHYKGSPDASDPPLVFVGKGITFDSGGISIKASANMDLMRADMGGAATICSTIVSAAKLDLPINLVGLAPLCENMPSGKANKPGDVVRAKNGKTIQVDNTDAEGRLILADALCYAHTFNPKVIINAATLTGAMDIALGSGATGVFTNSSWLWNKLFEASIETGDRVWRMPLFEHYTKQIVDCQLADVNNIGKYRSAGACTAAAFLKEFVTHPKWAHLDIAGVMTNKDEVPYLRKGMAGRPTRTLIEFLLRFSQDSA
Assay: Inhibition of porcine kidney leucine aminopeptidase
Type: biochemical
pKi: −log10 of the molar value.
Measured property: pKi

In: Fill in reported pKi for this entry: NC(CNCC1CCCO1)P(=O)(O)O (stereo not shown) [1k]
Out: 5.15 to 5.60

----------
Molecular target: LAP (M17 leucine aminopeptidase) (Sus scrofa, UniProt P28839)
Test: Inhibition of porcine kidney leucine aminopeptidase
Format: biochemical
Conditions: read-out: Ki LAP; NI = no inhibition up to 0.8 mM inhibitor concentration
Measured property: Ki

In: Output Ki of NC(CN1CCOCC1)P(=O)(O)O (stereo not shown)
Out: > 800 µM

Cited source for all entries: paper PMC4867306
